Assay: Toxicity liver stage against HepG2, at 10uM
Format: cell-based
Set-up: test concentration 10 uM, cell line HepG2-A16-CD81EGFP
Details: human, HepG2-A16-CD81EGFP cells; read-out: INHIBITION
A collection of compounds and their measured cytotoxicity at 10 µM
quantity measured: cytotoxicity at 10 µM (%)

                                    compound  result_value
 0      Cc1cc(C(=O)N2CCCC2)ccc1NCCOCC(F)(F)F         0.608
 1           Cc1noc(C)c1C(=O)NCc1cccnc1N(C)C         -9.42
 2  CSc1ncccc1C(=O)NC(C)c1cccc(N2CCOC2=O)c1 (centres undefined)         -9.05
 3  CCCN1CCC(CC(=O)N[C@H](C(=O)O)c2cccc(F)c2F)CC1          3.78
 4  CC(O)c1cn(Cc2ccc(Cl)cc2Cl)nn1 (centres undefined)          15.5
 5  CC(=O)N1CCN(Cc2cccs2)CC2(CC(=O)N(C)C2)C1 (centres undefined)           1.7
 6                 Cc1ccc(-n2cnc(Cl)c2CO)cc1        -0.303
 7  CC(=O)NCC(=O)N1CCCC(C(=O)c2ccc(C(C)(C)C)cc2)C1 (centres undefined)          5.78
 8   O=C(C1CCOCC1)N1CCc2ncnc(-c3ccccc3)c2CC1         -6.09
 9     O=C(O)[C@@H]1CCCN1c1nccc(Nc2ccccc2)n1          12.2
10             Cc1ccsc1CN(CCCN(C)C)Cc1ccccn1         -4.11
11  Cc1cccc(CN2CC[C@@H]3[C@@H]2CCN3C(=O)c2cc(C)oc2C)n1         -4.42
12  CCN1CCc2[nH]cnc2C12CCN(c1ncc(C(=O)O)cc1Cl)CC2          1.46
13  CCCC(=O)N1CCc2nc3cc(OC)c(OC)cc3c(=O)n2CC1         -13.2
14        O=C(c1ccc(-c2ccc(O)nc2)s1)N1CCCCC1          3.35
15  Fc1ccccc1CN(CCCn1ccnc1)CC1CCOC1 (centres undefined)          8.68
16  CC(C)n1[nH]c(=O)c2c1NC(=O)CC2c1cccc(O)c1 (centres undefined)          10.6
17  COc1ccc(C(=O)C2CCCN(Cc3cc(C)n[nH]3)C2)c(OC)c1 (centres undefined)         -6.77
18  CNC(=O)CCc1cc(C2CCCN2C(=O)CO)nc(C)n1 (centres undefined)        -0.785
19  CC1N(C)C(=O)COC12CCN(C(=O)CCc1ccccc1)CC2 (centres undefined)         0.227
20  CCn1nc(C)c(C(=O)Nc2ccc3c(c2)C(C)(C)C(=O)N3C)c1C          6.42
21         Cc1noc(CNC(=O)NCCOc2ccc(Cl)cc2)n1          1.92
22        OCC1(O)CCN(Cc2noc(-c3ccccc3)n2)CC1       -0.0739
23    O=C(c1nc(-c2ccc3cc[nH]c3c2)no1)N1CCCC1         -3.29

----------
Assay: Toxicity liver stage against HepG2, at 10uM
Assay type: cell-based
Parameters: test concentration 10 uM, cell line HepG2-A16-CD81EGFP
Details: human, HepG2-A16-CD81EGFP cells; read-out: INHIBITION
A collection of compounds and their measured cytotoxicity at 10 µM
quantity measured: cytotoxicity at 10 µM (%)

>>> print(df.to_string())
                                    compound      quantity_measured  units_of_measure  result_value
 0  Cc1cc(C)n(CC2CCCN2C(=O)CCNc2ncccn2)n1 (configuration not stated)  cytotoxicity at 10 µM                 %         -2.31
 1  CC[C@@]1(O)CCN(C(=O)c2ccc(SC)cc2)C[C@H]1O  cytotoxicity at 10 µM                 %         -17.5
 2  Cn1nc(C2CCCN(Cc3ccccc3)C2)c2nccnc21 (configuration not stated)  cytotoxicity at 10 µM                 %         -9.05
 3     Cn1c(C2CC2)nc2c1CCN(CCOc1cccc(F)c1)C2  cytotoxicity at 10 µM                 %         -13.1
 4  CN(C)CC1(O)CCN(C(=O)Cc2ccc(Cl)c(Cl)c2)C1 (configuration not stated)  cytotoxicity at 10 µM                 %            -4
 5          COc1ccc(Cl)cc1C(=O)NCc1cnn(C)c1C  cytotoxicity at 10 µM                 %          6.81
 6  Cc1nc(C)n(CC2CCCN2CC(=O)NCCC#N)n1 (configuration not stated)  cytotoxicity at 10 µM                 %         -2.78
 7       CN(CCC#N)C(=O)Cn1cnc2c(Br)cccc2c1=O  cytotoxicity at 10 µM                 %          -1.6
 8           CCSCCNC(=O)c1cnc(-c2ccccc2)nc1O  cytotoxicity at 10 µM                 %         -1.54
 9  COc1ccc(SCC2CNc3nc4ccccc4c(=O)n32)cc1 (configuration not stated)  cytotoxicity at 10 µM                 %          7.69
10  O=C(CS(=O)(=O)Cc1cc(Cl)c2c(c1)OCO2)N1CCCC1  cytotoxicity at 10 µM                 %         -8.91
11  COc1ccc(OCC(=O)NS(=O)(=O)c2cc(F)ccc2F)cc1  cytotoxicity at 10 µM                 %         -19.5

----------
A collection of compounds and their measured cytotoxicity at 10 µM
Assay: Toxicity liver stage against HepG2, at 10uM
Assay type: cell-based
Parameters: test concentration 10 uM, cell line HepG2-A16-CD81EGFP
Settings: human, HepG2-A16-CD81EGFP cells; read-out: INHIBITION
quantity measured: cytotoxicity at 10 µM (%)

In [3]: df
Out[3]:
                                    compound      quantity_measured  result_value
 0  COc1ccc(S(=O)(=O)N2C[C@@H]3CN(C)CCO[C@@H]3C2)cc1  cytotoxicity at 10 µM          1.82
 1                Cc1noc(C)c1Cc1nc(N(C)C)no1  cytotoxicity at 10 µM          9.21
 2  O=C1NCC(C(=O)Nc2ncc(Cc3cccc(F)c3)s2)N1 (stereo not drawn)  cytotoxicity at 10 µM         -2.45
 3  Cc1cc(C)n(CC2CN(CC(=O)N3CCNC3=O)CCO2)n1 (stereo not drawn)  cytotoxicity at 10 µM         -2.38
 4  CC(C)(C)c1ccc(C(=O)C2CCCN(C(=O)CNS(C)(=O)=O)C2)cc1 (stereo not drawn)  cytotoxicity at 10 µM           4.1
 5  Cc1cccc(CN2CC[C@@H]3O[C@@H](C(=O)N4CCN(C)CC4)C[C@@H]32)c1  cytotoxicity at 10 µM          8.01
 6        CN(C)c1ccc(NC(=O)NCc2ccc(Cl)s2)cn1  cytotoxicity at 10 µM          6.43
 7  COCCn1ccnc1C1CCCN(C(=O)c2ccncc2F)C1 (stereo not drawn)  cytotoxicity at 10 µM        0.0773
 8   COCCC(=O)N1CC2(CCN(Cc3cccc(Cl)c3)CC2)C1  cytotoxicity at 10 µM          5.63
 9  CN1CCN(C(=O)c2cc(NC(=O)c3ccccc3)n(C)n2)CC1  cytotoxicity at 10 µM          4.07
10         CCCc1noc(CN2CCC(c3ccnn3CCO)CC2)n1  cytotoxicity at 10 µM         -19.9
11  O=C(NCC1CCOC1)c1ccc(OCC(F)(F)F)nc1 (stereo not drawn)  cytotoxicity at 10 µM         -5.64
12  CS(=O)(=O)N1Cc2cnn(CC3CC3)c2C(COCC2CC2)C1 (stereo not drawn)  cytotoxicity at 10 µM          9.43
13  CCCNC(=O)CC1OCCc2ccsc21 (stereo not drawn)  cytotoxicity at 10 µM          -1.5
14                   O=C(NCC(F)(F)F)c1ccncc1  cytotoxicity at 10 µM           -19
15  Cc1nc(-c2ccsc2)ccc1C(=O)NCCC1CCCO1 (stereo not drawn)  cytotoxicity at 10 µM         -9.75
16  O=C(c1ccc(Cl)cc1)N1CCC2(C1)C(=O)Nc1ccccc12 (stereo not drawn)  cytotoxicity at 10 µM          1.91
17  COCCN1CCC(NC(=O)C/C=C/c2ccc(C(C)C)cc2)CC1  cytotoxicity at 10 µM        -0.616
18  O=C(c1cnn[nH]1)N(Cc1ccncc1)CC1CCCO1 (stereo not drawn)  cytotoxicity at 10 µM          2.86
19  Cc1ccc2c(c1)C1(CCN(C(N)=O)CC1)CN2C(=O)N(C)C  cytotoxicity at 10 µM         -79.1
20  C[C@@H](CO)NC(=O)c1ccc2nc(NS(C)(=O)=O)sc2c1  cytotoxicity at 10 µM          6.84
21  CC(CO)(NC(=O)NCc1ccc(Br)s1)C1CC1 (stereo not drawn)  cytotoxicity at 10 µM          4.68
22           CCOCCS(=O)(=O)N(CC)Cc1ccc(Cl)s1  cytotoxicity at 10 µM         -6.15
23  O=C(CS(=O)(=O)C1CCCC1)NC(c1ccc(F)cc1)C1CC1 (stereo not drawn)  cytotoxicity at 10 µM          -159
24         O=S(=O)(CCCn1cncn1)Cc1ccc(F)cc1Cl  cytotoxicity at 10 µM          7.49
25  CC(CNC(=O)c1c[nH]nn1)Oc1ccc(Cl)cc1 (stereo not drawn)  cytotoxicity at 10 µM          9.27
26              Cc1ccc(C(=O)NS(C)(=O)=O)cc1I  cytotoxicity at 10 µM          6.22
27     Cc1sc2ccccc2c1S(=O)(=O)NCCNC(=O)C(C)C  cytotoxicity at 10 µM        -0.238
28             CCc1c(C)n(C)c2nc3ccccc3n2c1=O  cytotoxicity at 10 µM          5.94
29  Cc1cnc(NC(=O)c2cccc(CN(C)Cc3snnc3C)c2)s1  cytotoxicity at 10 µM          16.3
30  COCC(=O)N1CCCC2(CCN(c3cncnc3)C2=O)C1 (stereo not drawn)  cytotoxicity at 10 µM         -72.5
31  CC(NC(=O)c1ccoc1)C(=O)N(C)Cc1cccc(C(F)(F)F)c1 (stereo not drawn)  cytotoxicity at 10 µM         -13.6
32               NCc1ccc(Oc2cccc(Cl)c2Cl)cc1  cytotoxicity at 10 µM          7.25
33   Cc1cnc(N2CCC3(CCN(CC4CCCC4)C3=O)CC2)nc1  cytotoxicity at 10 µM         -6.54
34  CCCOC(C)C(=O)NCc1cc2n(n1)CCCN(C1CCCCC1)C2 (stereo not drawn)  cytotoxicity at 10 µM           2.5
35  CCOCC(=O)NCCC(O)c1ccoc1 (stereo not drawn)  cytotoxicity at 10 µM         -4.59
36  CCN1CCC(Cn2ccc3c(OC)c(OC)ccc3c2=O)C1 (stereo not drawn)  cytotoxicity at 10 µM          -4.7
37  Cc1ccc2ncn(CC(O)CN3CCC(C)CC3)c(=O)c2c1 (stereo not drawn)  cytotoxicity at 10 µM        -0.539
38     Cc1cccc(N(CCC(N)=O)CC(=O)Nc2ccccc2)c1  cytotoxicity at 10 µM          -9.5
39  Cc1noc([C@@]23CCO[C@@H]2CCN(Cc2scnc2C)C3)n1  cytotoxicity at 10 µM          -111
40  Cc1cnn(CC2CCN(CC(O)c3ccc(F)cc3)CC2)c1 (stereo not drawn)  cytotoxicity at 10 µM        -0.237
41   Cc1c(C(=O)N2CCN(C)CC2)n(C)c2ccc(Cl)cc12  cytotoxicity at 10 µM         -2.46
42  Cc1nn(CC(=O)N2CCC3(CN(C)C(=O)O3)C2)c(=O)c2ccccc12 (stereo not drawn)  cytotoxicity at 10 µM          9.74
43  CC(C)n1cnnc1CN(C)CC1CCCNC1 (stereo not drawn)  cytotoxicity at 10 µM          3.05
44  CN(C(=O)C1CCCC1)C(c1cccc(F)c1)c1ccccn1 (stereo not drawn)  cytotoxicity at 10 µM          6.07
45  CCc1cnc(N2CC[C@@H]3CN(CCC(C)C)S(=O)(=O)[C@@H]3CC2)nc1  cytotoxicity at 10 µM          2.38
46  CNC(=O)CCc1cc(C2CCCCN2C(C)C)nc(C)n1 (stereo not drawn)  cytotoxicity at 10 µM         -1.66
47  CCC1=N[C@@]2(CC[C@@H]3CN(C(=O)Nc4ccccc4)C[C@@H]32)C(=O)N1C  cytotoxicity at 10 µM          16.8
